Recorded values, source patent US7078428B2.

Biological target: UniProtKB P19634
Sequence (P19634 whole entry, species assumed): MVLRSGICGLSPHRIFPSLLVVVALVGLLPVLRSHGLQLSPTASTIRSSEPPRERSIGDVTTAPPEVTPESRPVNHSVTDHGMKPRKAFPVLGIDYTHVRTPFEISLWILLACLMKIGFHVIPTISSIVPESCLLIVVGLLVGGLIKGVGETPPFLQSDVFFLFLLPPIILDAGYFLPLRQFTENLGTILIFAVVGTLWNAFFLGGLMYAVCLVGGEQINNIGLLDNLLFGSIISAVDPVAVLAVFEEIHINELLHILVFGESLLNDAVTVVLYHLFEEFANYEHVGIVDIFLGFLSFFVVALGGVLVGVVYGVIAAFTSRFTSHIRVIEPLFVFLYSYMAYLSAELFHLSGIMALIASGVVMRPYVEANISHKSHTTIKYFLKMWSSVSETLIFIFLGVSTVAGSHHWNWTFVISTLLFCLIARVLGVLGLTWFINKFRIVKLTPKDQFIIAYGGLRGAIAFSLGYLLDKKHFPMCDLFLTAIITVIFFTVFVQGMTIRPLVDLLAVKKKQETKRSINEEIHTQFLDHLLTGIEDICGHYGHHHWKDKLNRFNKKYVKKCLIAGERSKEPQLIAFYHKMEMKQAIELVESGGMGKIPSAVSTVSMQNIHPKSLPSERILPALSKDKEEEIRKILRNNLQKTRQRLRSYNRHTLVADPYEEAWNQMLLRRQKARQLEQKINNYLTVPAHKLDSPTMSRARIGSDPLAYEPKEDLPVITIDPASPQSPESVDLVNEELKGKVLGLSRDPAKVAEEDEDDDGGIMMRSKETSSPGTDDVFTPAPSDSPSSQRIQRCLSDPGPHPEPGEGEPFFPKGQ
Test: NHE inhibition FLIPR test (intracellular pH recovery, BCECF) in transfected LAP-1 cells
Details: transfected cell line (parental LAP-1) expressing the NHE-1 subtype, pHi recovery after acidification
Protocol: The NHE inhibitory activities (IC50 values) of the compounds according to the invention were determined by a FLIPR test. The test is performed in the FLIPR (Fluorescent Imaging Plate Reader) equipped with clear-bottomed and black-walled 96-well microtitration plates. The growth medium for the transfected cells (Iscove +10% foetal calf serum) also comprises G418 as selection antibiotic to ensure the presence of transfected sequences. […]
Counter-ions that a name gives are not always drawn.
ENDPOINT_NAME: pIC50
Give only the number. pIC50 is defined as minus log10 of concentration in molar units.

Q. So what's the measured pIC50 for this one? NC(N)=NC(=O)CC1c2ccc(Cl)cc2C(=O)N1CC1CC1 (single isomer, unassigned) [Example 56a]
A. 7.55

Q. So what's the measured pIC50 for this one? NC(N)=NC(=O)CC1c2ccc(C(F)(F)F)cc2C(=O)N1CCC(F)(F)F (single isomer, unassigned) [Example 52b]
A. 6.17

Q. So what's the measured pIC50 for this one? NC(N)=NC(=O)CC1c2cc(C(F)(F)F)ccc2C(=O)N1CC(F)(F)F (single isomer, unassigned) [Example 48, fumarate]
A. 9.70

Q. So what's the measured pIC50 for this one? NC(N)=NC(=O)CC1c2ccccc2C(=O)N1Cc1ccccc1 (centres unmarked)
A. 6.81

Q. So what's the measured pIC50 for this one? N=C(N)NC(=O)CC1c2ccccc2C(=O)N1CC(F)(F)F (centres unmarked)
A. 7.00

Q. So what's the measured pIC50 for this one? NC(N)=NC(=O)CC1c2cc(C(F)(F)F)ccc2C(=O)N1CC(F)(F)F (single isomer, unassigned) [Example 46a]
A. 7.72

Q. So what's the measured pIC50 for this one? [H]/N=C(\N)NC(=O)CC1c2cc(Cl)c(Cl)cc2C(=O)N1CC1CC1 (single isomer, unassigned) [Example 42a]
A. 7.18

Q. So what's the measured pIC50 for this one? N=C(N)NC(=O)CC1c2cc(F)c(F)cc2C(=O)N1CCC(F)(F)F (single isomer, unassigned) [Example 40a]
A. 6.58

Q. So what's the measured pIC50 for this one? NC(N)=NC(=O)CC1c2cc(C(F)(F)F)ccc2C(=O)N1CC(F)(F)F (centres unmarked) [Example 21]
A. 8.31

Q. So what's the measured pIC50 for this one? NC(N)=NC(=O)CC1c2cc(C(F)(F)F)ccc2C(=O)N1CCC(F)(F)F (single isomer, unassigned) [Example 51b]
A. 6.77

Q. So what's the measured pIC50 for this one? [H]/N=C(\N)NC(=O)CC1c2cc(S(C)(=O)=O)ccc2C(=O)N1CC(F)(F)F (single isomer, unassigned) [Example 36b]
A. 8.22

Q. So what's the measured pIC50 for this one? NC(N)=NC(=O)CC1c2ccc(Cl)cc2C(=O)N1CCC(F)(F)F (single isomer, unassigned) [Example 50b]
A. 8.22

Q. So what's the measured pIC50 for this one? NC(N)=NC(=O)CC1c2ccccc2C(=O)N1CC1CC1 (centres unmarked)
A. 7.20

Q. So what's the measured pIC50 for this one? NC(N)=NC(=O)CC1c2cc(Cl)c(Cl)cc2C(=O)N1CC(F)(F)F (centres unmarked) [Example 44a, acetate]
A. 8.70

Q. So what's the measured pIC50 for this one? CC(C)CN1C(=O)c2ccccc2C1CC(=O)N=C(N)N (centres unmarked) [Example 2]
A. 7.23

Q. So what's the measured pIC50 for this one? NC(N)=NC(=O)CC1c2ccc(Cl)cc2C(=O)N1CC1CC1 (single isomer, unassigned) [Example 56b]
A. 7.74

Q. So what's the measured pIC50 for this one? CCCN1C(=O)c2ccccc2C1CC(=O)N=C(N)N (centres unmarked)
A. 7.04

Q. So what's the measured pIC50 for this one? Cc1ccc2c(c1)C(CC(=O)NC(=N)N)N(CC(C)C)C2=O (centres unmarked)
A. 7.42

Q. So what's the measured pIC50 for this one? NC(N)=NC(=O)CC1c2ccc(C(F)(F)F)cc2C(=O)N1CC(F)(F)F (single isomer, unassigned) [Example 47b]
A. 5.24

Q. So what's the measured pIC50 for this one? CC(C)N1C(=O)c2ccccc2C1CC(=O)N=C(N)N (centres unmarked)
A. 6.94
